# Assay target: Serotonin (5-Hydroxytryptamine) 5-HT1A (Homo sapiens, UniProt P08908)
# Construct: expressed in transfected cells; host or cells: CHO cells
# Sequence (P08908 1-422): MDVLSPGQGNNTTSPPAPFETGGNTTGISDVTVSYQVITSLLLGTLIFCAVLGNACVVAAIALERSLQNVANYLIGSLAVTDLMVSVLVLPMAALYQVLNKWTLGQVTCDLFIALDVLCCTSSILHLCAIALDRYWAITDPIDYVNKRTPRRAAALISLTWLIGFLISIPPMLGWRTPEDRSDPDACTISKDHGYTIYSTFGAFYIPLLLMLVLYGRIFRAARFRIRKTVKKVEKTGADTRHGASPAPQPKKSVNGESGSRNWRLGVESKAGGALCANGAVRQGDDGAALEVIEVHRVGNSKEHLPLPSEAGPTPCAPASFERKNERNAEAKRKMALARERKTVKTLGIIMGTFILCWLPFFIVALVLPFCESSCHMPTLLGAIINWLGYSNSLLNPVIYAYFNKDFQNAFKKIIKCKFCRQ
# Test: Radioligand binding, 5-HT1A ([3H] 8-OH-DPAT)
# Stated conditions: 10 μM
# Method: The methods employed in this study have been adapted from the scientific literature to maximize reliability and reproducibility. Reference standards were run as an integral part of each assay to ensure the validity of the results obtained. Assays were performed under conditions as described below. Where presented, IC50 values were determined by a non-linear, least squares regression analysis using the Data Analysis Toolbox (MDL Information Systems, San Leandro, Calif., USA). […]
Measured property: % INHIBITION (%)
Use % as the unit, but write only the number.

Request: Any idea what its % INHIBITION is? The compound is NCCN1CCN(CCCCN2c3ccccc3Sc3ccc(C(F)(F)F)cc32)CC1 [ICI-953]
Response: 54

Request: Please do the same for NCC(=O)NCCN1CCN(CCCCN2c3ccccc3Sc3ccc(C(F)(F)F)cc32)CC1 [ICI-954] as well.
Response: 56

Request: Please do the same for FC(F)(F)c1ccc2c(c1)N(CCC1CCNCC1)c1ccccc1S2 [ICI-1007] as well.
Response: 48

Request: Please do the same for NCCN1CCC(CCN2c3ccccc3Sc3ccc(C(F)(F)F)cc32)CC1 [ICI-1008] as well.
Response: 69
